- Test system: C. elegans
- experiment: C. elegans growth and proliferation
- Type: in vivo
- reportedConditions: 250 μM; Table 7
readout: Effective inhibitor of C. elegans growth at 250 μM

Known results for compounds:
O=C(O)C(Cc1ccc(I)cc1)Nc1nc(-c2ccc(Cl)c(Cl)c2)cs1 (stereo not shown)	No
COC(=O)C(Cc1ccc(I)cc1)Nc1nc(-c2ccc(Cl)c(Cl)c2)cs1 (stereo not shown)	No
O=C(NS(=O)(=O)c1ccc([N+](=O)[O-])cc1)C(Cc1ccc(I)cc1)Nc1nc(-c2ccc(Cl)c(Cl)c2)cs1 (stereo not shown)	Yes
CS(=O)(=O)NC(=O)C(Cc1ccc(I)cc1)Nc1nc(-c2ccc(Cl)c(Cl)c2)cs1 (stereo not shown)	Yes
O=C(NS(=O)(=O)C(F)(F)F)C(Cc1ccc(I)cc1)Nc1nc(-c2ccc(Cl)c(Cl)c2)cs1 (stereo not shown)	Yes
Cc1ccc(S(=O)(=O)NC(=O)C(Cc2ccc(I)cc2)Nc2nc(-c3ccc(Cl)c(Cl)c3)cs2)cc1 (stereo not shown)	No

Turning now to a further compound:
-- ask What is its Effective inhibitor of C. elegans growth at 250 μM for C. elegans? Entry: O=C(NS(=O)(=O)c1ccc(Cl)cc1)C(Cc1ccc(I)cc1)Nc1nc(-c2ccc(Cl)c(Cl)c2)cs1 (stereo not shown)
-- reply Yes

###

- assayedTarget: recombinant MtbUGM (Mycobacterium tuberculosis)
- Construct: made in house
- Sequence (P9WIQ1 whole entry): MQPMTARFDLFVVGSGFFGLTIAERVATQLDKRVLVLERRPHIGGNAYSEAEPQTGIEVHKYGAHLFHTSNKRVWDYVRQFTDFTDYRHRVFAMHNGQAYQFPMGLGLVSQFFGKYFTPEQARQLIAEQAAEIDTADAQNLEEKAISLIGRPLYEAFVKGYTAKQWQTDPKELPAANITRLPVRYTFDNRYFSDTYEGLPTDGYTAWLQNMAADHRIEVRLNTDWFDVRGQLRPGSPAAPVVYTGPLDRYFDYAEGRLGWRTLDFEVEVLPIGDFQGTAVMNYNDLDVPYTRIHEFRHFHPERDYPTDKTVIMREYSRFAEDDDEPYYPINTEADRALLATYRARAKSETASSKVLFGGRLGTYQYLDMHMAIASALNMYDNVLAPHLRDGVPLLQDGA
- experiment: biochemical
- reportedConditions: 50 μM; mean of two replicates; read-out: % inhib MtbUGM (50 μM)
Each entry gets No if its inhibition at 50 µM stays under 30%, and Yes if its inhibition at 50 µM is 30% or above.

-- ask Textbook exercise: given the entry Cc1ccc(C2=Nn3c(Cc4ccc(Br)cc4)nnc3SC2CC(=O)O)c(C)c1 (stereo not shown) [Compound 24] , state whether its inhibition at 50 µM is greater than or equal to 30%.
-- reply No

-- ask Textbook exercise: given the entry O=C(O)CC1Sc2nnc(Cc3ccc(Br)cc3)n2N=C1c1ccc(F)cc1 (stereo not shown) [Compound 23] , state whether its inhibition at 50 µM is greater than or equal to 30%.
-- reply No

-- ask Textbook exercise: given the entry Cc1ccc(C2=Nn3c(Cc4ccc(Br)cc4)nnc3SC2CC(=O)O)cc1 (stereo not shown) [Compound 21] , state whether its inhibition at 50 µM is greater than or equal to 30%.
-- reply Yes

-- ask Textbook exercise: given the entry O=C(O)CC1Sc2nnc(Cc3ccc4ccccc4c3)n2N=C1c1ccc(Cl)cc1 (stereo not shown) [Compound 30] , state whether its inhibition at 50 µM is greater than or equal to 30%.
-- reply Yes

-- ask Textbook exercise: given the entry O=C(O)CC1Sc2nnc(Cc3ccc(Br)cc3)n2N=C1c1ccc(Cl)cc1 (stereo not shown) [Compound 11] , state whether its inhibition at 50 µM is greater than or equal to 30%.
-- reply Yes

-- ask Textbook exercise: given the entry O=C(O)CC1Sc2nnc(Cc3ccc(Br)cc3)n2N=C1c1ccc(C(F)(F)F)cc1 (stereo not shown) [Compound 20] , state whether its inhibition at 50 µM is greater than or equal to 30%.
-- reply No

-- ask Textbook exercise: given the entry O=C(O)CC1Sc2nnc(Cc3ccc(Br)cc3)n2N=C1c1ccc(Cl)c(Cl)c1 (stereo not shown) [Compound 16] , state whether its inhibition at 50 µM is greater than or equal to 30%.
-- reply Yes

-- ask Textbook exercise: given the entry COc1ccc(C2=Nn3c(Cc4ccc(Br)cc4)nnc3SC2CC(=O)O)cc1 (stereo not shown) [Compound 22] , state whether its inhibition at 50 µM is greater than or equal to 30%.
-- reply Yes

-- ask Textbook exercise: given the entry Cc1ccc(C2=Nn3c(Cc4ccc(Br)cc4)nnc3SC2CC(=O)O)cc1C (stereo not shown) [Compound 17] , state whether its inhibition at 50 µM is greater than or equal to 30%.
-- reply Yes
